Assay details: Solubility of peptide compounds in buffer formulations (Table 5)
Assay type: physicochemical
Measurement parameters: aqueous buffer; 50 mM phosphate buffer pH 6.5, 2 h agitation, target 1 mg/ml; read-out: Solubility, Buffer pH 6.5
Protocol: Prior to the solubility measurement of a peptide batch, its purity was determined through UHPLC/MS method A. For solubility testing the target concentration was 1 mg pure compound/ml. […] The solubility was determined by the comparison of the UV peak area of 2 μL-injections of a buffered sample diluted 1:10 with a standard curve of a dimethyl sulfoxide reference sample of known concentration. […]
Numbered stars: 1 amine (or outer) side, 2 acyl side, 3 side chain; on linkers, the order of the positions; unused ones are H or OH. Bridge positions count the residues as written; N and C are the ends. Square brackets hold non-standard residues; d marks the D form. Peptide text beside a SMILES is read from it. * marks the point of attachment. Lys(Me,(CH2)4NMe(CH2)5CO) = CN(CCCCCC(=O)[*:3])CCCCN(C)CCCC[C@H](N[*:1])C(=O)[*:2]; Lys(Me,(CH2)4NMe(CH2)4CO) = CN(CCCCC(=O)[*:3])CCCCN(C)CCCC[C@H](N[*:1])C(=O)[*:2]; Trp(7-Me) = Cc1cccc2c(C[C@H](N)C(=O)O)c[nH]c12; Trp(1-Me) = Cn1cc(C[C@H](N)C(=O)O)c2ccccc21; NH(2-(3-pyridyl)ethyl) = c1cncc(CCN*)c1; αMeLys(Me2) = CN(C)CCCC[C@](C)(N)C(=O)O; NH(CH2)9CO = O=C(CCCCCCCCCN[*:1])[*:2]; 2Nal = N[C@@H](Cc1ccc2ccccc2c1)C(=O)O; 3Pal = N[C@@H](Cc1cccnc1)C(=O)O; Aun = NCCCCCCCCCCC(=O)O; Thp = NC1(C(=O)O)CCOCC1; Me2NCH2CH2 = CN(C)CC*; Aib = CC(C)(N)C(=O)O; Aoc = NCCCCCCCC(=O)O; Sar = CNCC(=O)O
Recorded solubility at 2 h values for a group of compounds are listed next.

CC(=O)NCCCC[C@@H]1NC(=O)[C@H](Cc2c[nH]c3c(C)cccc23)NC(=O)CCCCN(C)CCCCN(C)CCCC[C@@H](C(=O)N[C@@H](CO)C(=O)N[C@@H](Cc2cccnc2)C(=O)N(C)CC(N)=O)NC(=O)[C@](C)(CCCCN(C)C)NC(=O)[C@H](Cc2ccc3ccccc3c2)NC(=O)[C@H](Cc2ccc(OCCN(C)C)cc2)NC(=O)C2(CCOCC2)NC1=O [compound 44] ([Trp(7-Me)]K(Ac)[Thp]Y(Me2NCH2CH2)[2Nal][αMeLys(Me2)][Lys(Me,(CH2)4NMe(CH2)4CO)]S[3Pal][Sar]-NH2; lactam N-7) = ≥ 1130 µg/mL
Cc1cccc2c(C[C@@H]3NC(=O)CCCCN(C)CCCCN(C)CCCC[C@@H](C(=O)N[C@@H](CC(N)=O)C(=O)N[C@@H](Cc4cccnc4)C(=O)N(C)CC(N)=O)NC(=O)C(C)(C)NC(=O)[C@H](Cc4ccc5ccccc5c4)NC(=O)[C@H](Cc4ccc(OCCN(C)C)cc4)NC(=O)C4(CCOCC4)NC(=O)[C@H](CCC(N)=O)NC3=O)c[nH]c12 [compound 46] ([Trp(7-Me)]Q[Thp]Y(Me2NCH2CH2)[2Nal][Aib][Lys(Me,(CH2)4NMe(CH2)4CO)]N[3Pal][Sar]-NH2; lactam N-7) = ≥ 1050 µg/mL
CC(=O)NCCCC[C@@H]1NC(=O)[C@H](Cc2c[nH]c3c(C)cccc23)NC(=O)[C@@H](NC(C)=O)CCCCN(C)CCCCN(C)CCCC[C@@H](C(=O)N[C@@H](CC(N)=O)C(=O)N[C@@H](Cc2cccnc2)C(=O)N(C)CC(N)=O)NC(=O)C(C)(C)NC(=O)[C@@H](Cc2ccc3ccccc3c2)NC(=O)[C@H](Cc2ccc(OCCN(C)C)cc2)NC(=O)C2(CCOCC2)NC1=O = ≥ 1180 µg/mL
Cc1cccc2c(C[C@@H]3NC(=O)CCCCN(C)CCCCN(C)CCCC[C@@H](C(=O)NCC(=O)NCCc4cccnc4)NC(=O)C(C)(C)NC(=O)[C@H](Cc4ccc5ccccc5c4)NC(=O)[C@H](Cc4ccc(OCCN(C)C)cc4)NC(=O)C4(CCOCC4)NC(=O)[C@H](CCC(N)=O)NC3=O)c[nH]c12 [compound 24] ([Trp(7-Me)]Q[Thp]Y(Me2NCH2CH2)[2Nal][Aib][Lys(Me,(CH2)4NMe(CH2)4CO)]G-{NH(2-(3-pyridyl)ethyl)}; lactam N-7) = ≥ 900 µg/mL
Cc1cccc2c(C[C@@H]3NC(=O)CCCCCCCCCCNC(=O)CC[C@@H](C(=O)N[C@@H](CC(N)=O)C(=O)N[C@@H](Cc4cccnc4)C(=O)N(C)CC(N)=O)NC(=O)C(C)(C)NC(=O)[C@H](Cc4ccc5ccccc5c4)NC(=O)[C@H](Cc4ccc(OCCN(C)C)cc4)NC(=O)C(C)(C)NC(=O)[C@H](CCC(N)=O)NC3=O)c[nH]c12 [compound 35] ([Aun][Trp(7-Me)]Q[Aib]Y(Me2NCH2CH2)[2Nal][Aib]EN[3Pal][Sar]-NH2; lactam N-8) = 80 µg/mL

Input CN(C)CCCC[C@]1(C)NC(=O)[C@H](Cc2ccc3ccccc3c2)NC(=O)[C@H](Cc2ccc(OCCN(C)C)cc2)NC(=O)C2(CCOCC2)NC(=O)[C@H](CCC(N)=O)NC(=O)[C@H](Cc2cn(C)c3ccccc23)NC(=O)CCCCN(C)CCCCN(C)CCCC[C@@H](C(=O)N[C@@H](CO)C(=O)N[C@@H](Cc2cccnc2)C(=O)N(C)CC(N)=O)NC1=O [compound 45] ([Trp(1-Me)]Q[Thp]Y(Me2NCH2CH2)[2Nal][αMeLys(Me2)][Lys(Me,(CH2)4NMe(CH2)4CO)]S[3Pal][Sar]-NH2; lactam N-7) , output reported solubility at 2 h. ≥ 1030 µg/mL

Input CN(C)CCOc1ccc(C[C@@H]2NC(=O)C3(CCOCC3)NC(=O)[C@H](CCC(N)=O)NC(=O)[C@H](Cc3cn(C)c4ccccc34)NC(=O)CCCCCN(C)CCCCN(C)CCCC[C@@H](C(=O)NCC(=O)NCCc3cccnc3)NC(=O)C(C)(C)NC(=O)[C@H](Cc3ccc4ccccc4c3)NC2=O)cc1 [compound 22] ([Trp(1-Me)]Q[Thp]Y(Me2NCH2CH2)[2Nal][Aib][Lys(Me,(CH2)4NMe(CH2)5CO)]G-{NH(2-(3-pyridyl)ethyl)}; lactam N-7) , output reported solubility at 2 h. ≥ 920 µg/mL

Input Cc1cccc2c(C[C@@H]3NC(=O)CCCCCCCNC(=O)CC[C@@H](C(=O)N[C@@H](CC(N)=O)C(=O)N[C@@H](Cc4cccnc4)C(=O)N(C)CC(N)=O)NC(=O)C(C)(C)NC(=O)[C@H](Cc4ccc5ccccc5c4)NC(=O)[C@H](Cc4ccc(OCCN(C)C)cc4)NC(=O)C4(CCOCC4)NC(=O)[C@H](CCC(N)=O)NC3=O)c[nH]c12 [compound 6] ([Aoc][Trp(7-Me)]Q[Thp]Y(Me2NCH2CH2)[2Nal][Aib]EN[3Pal][Sar]-NH2; lactam N-8) , output reported solubility at 2 h. ≥ 1040 µg/mL

Input Cc1cccc2c(C[C@@H]3NC(=O)CCCCCCCCCNC(=O)CC[C@@H](C(=O)N[C@@H](CC(N)=O)C(=O)N[C@@H](Cc4cccnc4)C(=O)N(C)CC(N)=O)NC(=O)C(C)(C)NC(=O)[C@H](Cc4ccc5ccccc5c4)NC(=O)[C@H](Cc4ccc(OCCN(C)C)cc4)NC(=O)C4(CCOCC4)NC(=O)[C@H](CC(C)C)NC3=O)c[nH]c12 [compound 8] ([NH(CH2)9CO][Trp(7-Me)]L[Thp]Y(Me2NCH2CH2)[2Nal][Aib]EN[3Pal][Sar]-NH2; lactam N-8) , output reported solubility at 2 h. < 10 µg/mL
